The reported measurements were obtained from patent US20190367631A1.

Molecular target: T1, human MSR1 extracellular domain expressed with a N-terminal nonahistidine tag (human, UniProt P21757 77-451)
T1 construct: extracellular domain; also called His9-hMSR1; His-hMSR1
T1 sequence: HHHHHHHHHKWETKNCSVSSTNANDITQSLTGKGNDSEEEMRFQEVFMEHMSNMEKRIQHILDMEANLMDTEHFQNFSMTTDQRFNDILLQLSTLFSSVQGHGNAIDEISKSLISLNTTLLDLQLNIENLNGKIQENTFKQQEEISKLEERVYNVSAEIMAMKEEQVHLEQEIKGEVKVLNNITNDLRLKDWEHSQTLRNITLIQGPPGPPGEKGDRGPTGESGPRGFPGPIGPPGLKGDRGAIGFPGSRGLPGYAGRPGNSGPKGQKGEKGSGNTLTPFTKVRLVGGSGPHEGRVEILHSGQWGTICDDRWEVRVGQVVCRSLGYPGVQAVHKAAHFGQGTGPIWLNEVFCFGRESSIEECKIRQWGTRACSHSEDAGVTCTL
Assay: competition ELISA, plate-coated His9-hMSR1; 300 nM antibody, competitor ligand biot-AGE-BSA
endpoint: % Blocking (%)
# output: bare number, implied unit %

Below: 4 binders and their reported % Blocking.
H1H27754P-N297Q (antibody, V domains shown, Human IgG1 Fc with N297Q) VH: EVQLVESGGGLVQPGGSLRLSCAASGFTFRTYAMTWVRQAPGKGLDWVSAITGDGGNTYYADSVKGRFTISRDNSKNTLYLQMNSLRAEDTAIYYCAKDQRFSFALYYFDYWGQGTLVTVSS VL: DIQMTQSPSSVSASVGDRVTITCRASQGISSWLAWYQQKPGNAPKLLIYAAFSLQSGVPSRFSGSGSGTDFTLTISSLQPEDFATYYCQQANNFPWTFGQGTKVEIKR | -9
H1H27734P-N297Q (antibody, V domains shown, Human IgG1 Fc with N297Q) VH: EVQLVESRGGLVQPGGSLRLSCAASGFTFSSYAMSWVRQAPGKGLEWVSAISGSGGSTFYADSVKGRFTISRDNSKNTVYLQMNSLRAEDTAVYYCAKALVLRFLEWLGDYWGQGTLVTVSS VL: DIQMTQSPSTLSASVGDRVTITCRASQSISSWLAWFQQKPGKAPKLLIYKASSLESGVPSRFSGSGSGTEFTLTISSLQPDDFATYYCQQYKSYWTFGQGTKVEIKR | -4
H1H27736P-N297Q (antibody, V domains shown, Human IgG1 Fc with N297Q) VH: EVQLVESGGGLVQPGGSLRLSCAASGFTFSSYAMSWVRQAPGKGLEWVSSISGSGDSTFYTDSVKGRFTISRDISKNTLYLQMNSLRAEDTAVYYCAKDRLLWFGDLISPFHYWGQGTLVTVSS VL: EIVLTQSPGTLSLSPGERATLSCRASQSVSNIYLAWYQQKPAQAPRLLIYGASSRATGIPDRFSVSGSGTDFTLTISRLEPEDFAVYYCQQYGSSPRTFGQGTKVEIKR | -3
H1H27732P-N297Q (antibody, V domains shown, Human IgG1 Fc with N297Q) VH: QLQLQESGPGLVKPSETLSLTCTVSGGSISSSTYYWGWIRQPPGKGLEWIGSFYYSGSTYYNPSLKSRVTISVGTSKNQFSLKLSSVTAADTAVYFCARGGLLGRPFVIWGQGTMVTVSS VL: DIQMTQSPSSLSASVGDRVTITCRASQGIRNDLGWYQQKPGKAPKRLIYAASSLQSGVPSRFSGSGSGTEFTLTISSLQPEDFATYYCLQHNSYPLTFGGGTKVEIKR | -9

Now consider the entry below.
Query: % Blocking; subject: H1H27747P-N297Q (antibody, V domains shown, Human IgG1 Fc with N297Q) VH: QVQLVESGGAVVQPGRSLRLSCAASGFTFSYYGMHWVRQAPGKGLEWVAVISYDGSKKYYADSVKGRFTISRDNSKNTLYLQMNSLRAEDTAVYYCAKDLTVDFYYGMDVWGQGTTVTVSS VL: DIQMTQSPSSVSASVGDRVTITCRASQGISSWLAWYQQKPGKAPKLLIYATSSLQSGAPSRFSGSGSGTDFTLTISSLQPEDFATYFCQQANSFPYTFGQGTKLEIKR
-2
